- System: Sonic hedgehog protein (Shh)
- method-summary: small-molecule binders of Shh protein, primary screen, biochemical, small-molecule microarray, 635/667 nm fluorescence (AID 1151);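 also: Shh protein binding to compounds spotted on small-molecule microarray slides; score combines spot fluorescence intensity with signal-to-noise across triplicate slides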
- test-context: small-molecule microarray binding, 635 nm fluorescence; higher = more signal
quantity: composite z-score
// response body must contain only the number

O=C(NCCN1CCOCC1)[C@@H]1c2ccccc2C(=O)N(Cc2ccccc2)[C@H]1c1ccc(CO)cc1 | -1.67
COc1ccc(C(O)C2C=CC3C(=O)N(c4ccccc4)C(=O)C3N2Nc2ccccc2)cc1 (centres undefined) | 0.393
O=C1C2C=CC(C(O)c3ccc4c(c3)OCO4)N(Nc3ccccc3)C2C(=O)N1c1ccccc1 (centres undefined) | 0.0743

Inquiry: Please look at this compound and report its composite z-score: COc1cc2c(cc1OC)CN(C(=O)[C@@H]1[C@H]3C(=O)O[C@H](c4ccccc4)[C@H](c4ccccc4)N3[C@H](c3ccc(O)cc3)[C@@]13C(=O)Nc1ccc(C#CCCO)cc13)CC2
Reply text: 0.655

Inquiry: Please look at this compound and report its composite z-score: O=C(NCC(O)CO)[C@@]1(CCS(=O)(=O)c2ccccc2)COC(c2ccc(OCCCO)cc2)=N1 (some centres undefined)
Reply text: -0.504

Inquiry: Please look at this compound and report its composite z-score: C=CCC(OC(C)=O)[C@@H]1[C@@H](N(Cc2cccc3ccccc23)C(=O)Cc2ccc(F)cc2)c2cc(OCCCO)ccc2N1C(=O)c1ccc(-c2ccccc2)cc1 (some centres undefined)
Reply text: 0.246

* * *

- method-summary: small-molecule microarray binders of probe aShh, primary screen, biochemical, biotinylated probe, 635/667 nm fluorescence (AID 1114);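 also: probe is biotin-labelled aShh protein from a stem cell growth factor screen; measures binding of labelled protein to compounds printed on the slide; score merges feature fluorescence at 667 nm with signal-to-noise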
- test-context: higher = more signal
So basically: composite z-score at 0.01 or higher? That is Satisfied. Lower than 0.01? That is Not satisfied.

Observe how each entry below is paired with its result.
CC(C)CCC[C@@H](C)[C@H]1CC[C@@]2(C)C3=C(CC[C@]12C)[C@@]1(C)CC[C@H](OC(=O)c2ccccc2)C(C)(C)C1CC3 (some centres not stated) | Not satisfied
[N-]=[N+]=Nc1ccccc1[C@@H]1OC(c2ccc(OCCCO)cc2)=N[C@]1(Cc1ccccc1)C(=O)NCc1ccccc1 | Satisfied
CCOC(=O)C[C@H]1[C@H](OC(=O)c2ccc(C(=O)c3ccccc3)cc2)[C@@H](NC(=O)CC(C)C)c2cc(OCCCO)ccc2N1C(=O)Cc1ccc(OC)cc1 | Not satisfied

Kindly review the next compound as well.
Inquiry: Decide: is the reported value of composite z-score for CCCCCCCCCCC(O)C1C=CC2C(=O)N(C)C(=O)C2N1Nc1cc(OC)c(OC)c(OC)c1 (configuration not stated) equal to or greater than 0.01?
Reply text: Not satisfied

* * *

- test-target: NADPH oxidase 4 (Homo sapiens) (UniProt Q9NPH5)
- Sequence (Q9NPH5 whole entry, looked up): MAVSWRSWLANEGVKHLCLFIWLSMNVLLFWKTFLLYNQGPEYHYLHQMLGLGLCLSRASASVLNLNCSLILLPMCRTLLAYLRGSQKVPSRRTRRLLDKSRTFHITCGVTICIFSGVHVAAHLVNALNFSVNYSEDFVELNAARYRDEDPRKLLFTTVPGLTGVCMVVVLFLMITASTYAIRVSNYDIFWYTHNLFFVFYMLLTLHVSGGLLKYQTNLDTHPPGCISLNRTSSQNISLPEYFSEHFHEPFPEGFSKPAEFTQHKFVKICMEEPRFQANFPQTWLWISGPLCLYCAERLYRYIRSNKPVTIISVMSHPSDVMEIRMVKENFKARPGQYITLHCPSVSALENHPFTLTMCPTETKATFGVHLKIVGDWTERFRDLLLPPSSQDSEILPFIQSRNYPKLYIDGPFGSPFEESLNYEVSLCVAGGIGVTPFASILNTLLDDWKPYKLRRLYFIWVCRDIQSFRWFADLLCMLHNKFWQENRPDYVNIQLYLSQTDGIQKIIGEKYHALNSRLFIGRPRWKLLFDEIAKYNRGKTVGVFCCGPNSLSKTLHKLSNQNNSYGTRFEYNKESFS
- method-summary: NOX4-dependent H2O2 signal modulators, primary screen, NOX inhibitor project, cell-based, HEK293-NOX4, tetracycline-induced, Amplex Red fluorescence (AID 1160)
- test-context: 45 min, higher = more signal, called active from +8 up or from −8 down
Listed here are molecules together with their documented z-score.
// response body must contain only the number

In the examples that follow, each entry is paired with its recorded z-score.
COc1ccc(C(O)C2C=CC3C(=O)N(c4ccccc4)C(=O)C3N2Nc2ccccc2F)cc1 (stereo unspecified) | -3.63
O=C1C[C@@](C(=O)NCc2ccccc2)(c2ccc([N+](=O)[O-])cc2)[C@@H](c2ccc(CO)cc2I)N1CC12CC3CC(CC(C3)C1)C2 | -4.29
[N-]=[N+]=NCc1ccccc1C[C@]1(C(=O)N2CCOCC2)COC(c2ccc(OCCCO)cc2)=N1 | -0.698
C=CCN1C(=O)[C@]2(O[C@H](CCO)[C@@H]([Si](C)(C)c3ccc(OC)cc3)[C@@H]2C)c2cc(NC(=O)c3ccc(OC)cc3)ccc21 | -0.48

Inquiry: Please look at this molecule and report its z-score: COc1ccc([Si](C)(C)[C@@H]2[C@@H](CC(=O)N3Cc4ccccc4C[C@H]3CO)O[C@]3(C(=O)N(Cc4ccc(N5CCC5=O)cc4)c4ccccc43)[C@H]2C)cc1
Reply text: 0.841

Inquiry: Please look at this molecule and report its z-score: COCCOC(=O)N1C(=O)[C@@]2(c3cc(C#CCC(C(=O)OC)C(=O)OC)ccc31)[C@H](C(=O)NC[C@H](O)c1ccccc1)[C@H]1C(=O)O[C@H](c3ccccc3)[C@H](c3ccccc3)N1[C@@H]2c1ccc(O)cc1
Reply text: 1.01

* * *

- method-summary: S. cerevisiae RM11-1a growth modifiers, primary screen, strain RM11-1a, OD600, basal, 24 h (AID 1177);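 also: cultures grown under basal conditions with no added stressor; test concentration not given here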
- test-context: OD600, 24 h, higher = more signal, called active from +8 up or from −8 down
Calls of active or inactive are those of the source.
Listed here are molecules together with their documented z-score.

In the examples that follow, each entry is paired with its recorded z-score.
COCC(=C=CC[C@H](O)c1cccc(OCCO)c1)C[C@H](O)COCc1ccccc1 | -0.496 (inactive)
O=C(N1CCOCC1)[C@@]1(CCS(=O)(=O)c2ccccc2)N=C(c2ccc(OCCCO)cc2)O[C@H]1c1ccccc1 | 0.0235 (inactive)
COCCOC(=O)N1C(=O)[C@@]2(c3cc(C#CC4=CCCCC4)ccc31)[C@H](c1ccc(O)cc1)N1[C@H](c3ccccc3)[C@H](c3ccccc3)OC(=O)[C@H]1[C@@H]2C(=O)NC[C@H](O)c1ccccc1 | 1.94 (inactive)

In the following, a different molecule is considered.
Inquiry: Please look at this molecule and report its z-score: CCOC(=O)C1=CCN(S(=O)(=O)c2ccc(C)cc2)C1c1ccccc1 (centres undefined)
Reply text: 0.58 (inactive)

* * *

- method-summary: binders of probe aFGF2 on microarray, primary screen, stem cell growth factor project, biochemical, small-molecule microarray, fluorescence 635/667 (AID 1067);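 also: measures binding of biotinylated aFGF2 protein to printed compounds on slides; z-score merges feature fluorescence and signal-to-noise across triplicate slides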
- test-context: higher = more signal
quantity: composite z-score
// response body must contain only the number

In the examples that follow, each entry is paired with its recorded composite z-score.
O=C1O[C@H](c2ccccc2)[C@H](c2ccccc2)N2[C@H]1[C@@H](C(=O)Nc1nc3ccccc3s1)[C@]1(C(=O)Nc3ccc(C#CC4=CCCCC4)cc31)[C@H]2c1ccc(O)cc1 | -0.0281
C=C(C)[C@@H]1CC=C(C(O)C2C=CC3C(=O)N(c4ccccc4)C(=O)C3N2Nc2ccc(C#N)cc2)CC1 (stereo partly drawn) | 0.169

In the following, a different compound is considered.
Inquiry: Please look at this compound and report its composite z-score: C=CCNC(=O)[C@@H]1[C@H]2C(=O)O[C@H](c3ccccc3)[C@H](c3ccccc3)N2[C@H](c2ccc(OCCO)cc2)[C@@]12C(=O)N(C(=O)OCCOC)c1ccc(C#CCCO)cc12
Reply text: -0.0203

* * *

- System: glycogen synthase kinase-3 (GSK3A per assay name; protocol says GSK3B)
- method-summary: GSK3 binders on small-molecule microarrays, primary screen, biochemical, small-molecule microarray, 635 nm fluorescence, GSK3A (AID 1103); also: the record names both GSK3A and GSK3B
- test-context: small-molecule microarray binding, fluorescence 635 nm; higher = more signal
quantity: composite z-score
// response body must contain only the number

In the examples that follow, each entry is paired with its recorded composite z-score.
CC(=O)NCCCC[C@@H]1NC(=O)[C@@H]2C[C@H](C(=O)NCCCCCCN)[C@H](c3cccc(OCCO)c3)N2C1=O | 0.132
Cc1ccccc1C(O)C1C=CC2C(=O)N(c3ccccc3)C(=O)C2N1Nc1ccc([N+](=O)[O-])cc1 (centres undefined) | 1.29
C=CCC(OC(C)=O)[C@@H]1[C@@H](N(Cc2ccc(-c3ccccc3)cc2)C(=O)Cc2ccc(F)cc2)c2cc(OCCCO)ccc2N1C(=O)Cc1ccc2ccccc2c1 (some centres undefined) | -0.199

In the following, a different compound is considered.
Inquiry: Please look at this compound and report its composite z-score: Cc1c(NC(=O)/C(C#N)=C/c2ccccc2Cl)c(=O)n(-c2ccccc2)n1C
Reply text: -0.046

* * *

- method-summary: fission yeast growth modulation, primary screen, strain 972, OD600, 24 h, no modulator (AID 1090);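 also: basal condition with compound alone and no growth modifier present; test concentration not given here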
- test-context: S. pombe 972 growth, higher = more signal, called active from +8 up or from −8 down
quantity: z-score
// response body must contain only the number

COc1ccc([Si](C)(C)[C@H]2[C@H](CC(=O)N3Cc4ccccc4C[C@H]3CO)O[C@@]3(C(=O)N(Cc4ccc(N5C(=O)c6cccc7cccc5c67)cc4)c4ccccc43)[C@@H]2C)cc1 | 1.17
CCCCCCCCCCC(O)C1C=CC2C(=O)N(C)C(=O)C2N1Nc1cc(OC)c(OC)c(OC)c1 (stereo not drawn) | 0.134

Inquiry: Please look at this compound and report its z-score: C=CCC(OC(C)=O)[C@@H]1[C@@H](N(Cc2cccc3ccccc23)C(=O)Cc2ccc(F)cc2)c2cc(OCCCO)ccc2N1C(=O)c1ccc(-c2ccccc2)cc1 (stereo partly drawn)
Reply text: -0.277

* * *

- method-summary: A549 cell viability effects, profiling panel, calcein-AM fluorescence, 48 h, basal (AID 1162); also: test concentration not given here
- test-context: higher = more signal
quantity: z-score
// response body must contain only the number

In the examples that follow, each entry is paired with its recorded z-score.
CN1C(=O)C2C=CC(C(O)c3cc(C(F)(F)F)cc(C(F)(F)F)c3)N(NC(=O)OC(C)(C)C)C2C1=O (stereo not drawn) | -1.29
COCCOC(=O)N1C(=O)[C@@]2(c3cc(C#CC4(O)CCCCCC4)ccc31)[C@H](C(=O)N1CCN(c3ncccn3)CC1)[C@H]1C(=O)O[C@H](c3ccccc3)[C@H](c3ccccc3)N1[C@@H]2c1ccccc1OCCO | -0.118
CN1C(=O)C2C(C1=O)C1C=C(CCCO)C2C(c2cccs2)N1Cc1cc2c(cc1Br)OCO2 (stereo not drawn) | 0.952
C=CCNC(=O)[C@@H]1[C@H]2C(=O)O[C@H](c3ccccc3)[C@H](c3ccccc3)N2[C@H](c2ccc(OCCO)cc2)[C@@]12C(=O)N(C(=O)OCCOC)c1ccc(C#CCCO)cc12 | 2.85

Inquiry: Please look at this compound and report its z-score: COc1ccc(NC(=O)O[C@H]2[C@@H]3OC(=O)[C@H](Cc4cccc(Br)c4)C/C=C/C[C@@H](Cc4cccc(Br)c4)C(=O)O[C@H]3[C@@H](OC)O[C@@H]2CO)cc1
Reply text: -0.102

Inquiry: Please look at this compound and report its z-score: CCOC(=O)C[C@H]1[C@H](OC(=O)c2cc3ccccc3oc2=O)[C@@H](NC(=O)c2ccc3ccccc3c2)c2cc(OCCCO)ccc2N1C(=O)Cc1ccc(OC)cc1
Reply text: -0.103

Inquiry: Please look at this compound and report its z-score: C=CCNC(=O)[C@@H]1[C@H]2C(=O)O[C@H](c3ccccc3)[C@H](c3ccccc3)N2[C@H](c2ccc(O)cc2)[C@@]12C(=O)Nc1ccc(C#CCC(C(=O)OC)C(=O)OC)cc12
Reply text: -0.399

Inquiry: Please look at this compound and report its z-score: COCCOC(=O)N1C(=O)[C@@]2(c3cc(C#CC4(O)CCCCCC4)ccc31)[C@H](c1ccc(OCCO)cc1)N1[C@H](c3ccccc3)[C@H](c3ccccc3)OC(=O)[C@H]1[C@@H]2C(=O)Nc1nc2ccccc2s1
Reply text: 0.0809

Inquiry: Please look at this compound and report its z-score: COCCCNC(=O)[C@@]1(c2ccc([N+](=O)[O-])cc2)CC(=O)N(C(C)C)[C@@H]1c1ccc(CO)cc1
Reply text: 1.12

Inquiry: Please look at this compound and report its z-score: CN1C(=O)C2C=CC(C(O)c3ccc(I)cc3)N(Nc3ccccc3)C2C1=O (stereo not drawn)
Reply text: -0.596

Inquiry: Please look at this compound and report its z-score: CCOC(=O)C1=CC[C@@H](c2ccccc2)N(S(=O)(=O)c2ccc(C)cc2)[C@H]1c1cccc(OC)c1
Reply text: -0.716

Inquiry: Please look at this compound and report its z-score: C=CCNC(=O)[C@H]1[C@@H]2C(=O)O[C@@H](c3ccccc3)[C@@H](c3ccccc3)N2[C@@H](c2ccc(OCCO)cc2)[C@]12C(=O)Nc1ccc(C#CCNC(N)=O)cc12
Reply text: 0.292
